Cited source for all entries: patent US10689354B2

Property: EC50; scope: individual molecules
- Experimental System: human androgen receptor (Homo sapiens, UniProt P10275)
- Construct: expressed in transfected cells; host or cells: HEK293
- Sequence (P10275 whole entry): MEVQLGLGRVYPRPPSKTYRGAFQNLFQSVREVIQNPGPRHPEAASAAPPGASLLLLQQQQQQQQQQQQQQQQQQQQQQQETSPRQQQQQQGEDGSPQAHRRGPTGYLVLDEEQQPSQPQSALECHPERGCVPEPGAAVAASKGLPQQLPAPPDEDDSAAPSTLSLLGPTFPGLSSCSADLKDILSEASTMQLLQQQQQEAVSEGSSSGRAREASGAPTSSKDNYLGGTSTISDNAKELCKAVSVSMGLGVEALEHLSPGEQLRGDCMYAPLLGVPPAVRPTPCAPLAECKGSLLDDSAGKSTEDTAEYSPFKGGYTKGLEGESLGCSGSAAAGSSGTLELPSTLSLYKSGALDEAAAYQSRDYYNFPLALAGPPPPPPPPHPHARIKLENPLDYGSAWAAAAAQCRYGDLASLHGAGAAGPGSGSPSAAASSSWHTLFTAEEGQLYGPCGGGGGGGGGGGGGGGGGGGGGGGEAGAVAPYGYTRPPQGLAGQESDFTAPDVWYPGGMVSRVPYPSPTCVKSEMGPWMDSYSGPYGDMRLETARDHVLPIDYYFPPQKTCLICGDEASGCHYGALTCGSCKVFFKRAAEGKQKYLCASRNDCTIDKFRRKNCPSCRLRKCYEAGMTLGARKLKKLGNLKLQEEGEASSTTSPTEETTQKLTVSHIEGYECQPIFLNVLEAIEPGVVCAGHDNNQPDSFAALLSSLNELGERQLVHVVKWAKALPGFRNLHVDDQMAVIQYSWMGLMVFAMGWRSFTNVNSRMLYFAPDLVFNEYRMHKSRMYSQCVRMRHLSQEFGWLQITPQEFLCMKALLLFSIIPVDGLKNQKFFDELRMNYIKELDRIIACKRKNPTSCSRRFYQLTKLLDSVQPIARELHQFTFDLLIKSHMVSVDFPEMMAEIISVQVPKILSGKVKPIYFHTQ
- Assay Text: Reporter assay of an androgen receptor responsive sequence (luciferase, transiently transfected HEK293 cells)
- Format: cell-based
- Conditions Used: 24 hours incubation, relative to activity of 100 nM DHT, read-out: AR transcriptive activity (pEC50) (converted)
Experimental Readout: EC50 (nM)

{"Molecule": "Cc1sc(N(CCC2CCCCC2)Cc2ccc(OC(F)(F)F)cc2)nc1C(=O)NS(C)(=O)=O [Compound 732]", "Experimental Readout": "EC50", "Measurement Qualifier": ">", "Number": 10000}
{"Molecule": "Cc1sc(N(Cc2ccccc2)c2ccc(C#N)cc2)nc1C(=O)NS(=O)(=O)CC(C)C [Compound 371]", "Experimental Readout": "EC50", "Measurement Qualifier": ">", "Number": 10000}
{"Molecule": "COCCCS(=O)(=O)NC(=O)c1nc(N(Cc2ccc(Cl)cn2)c2ccc(C#N)cc2)sc1C1CC1 [Example 283]", "Experimental Readout": "EC50", "Measurement Qualifier": ">", "Number": 10000}
{"Molecule": "CS(=O)(=O)NC(=O)c1nc(N(Cc2ccc(C(F)(F)F)cn2)c2ccc(C#N)cc2)oc1C1CC1 [Compound 649]", "Experimental Readout": "EC50", "Measurement Qualifier": ">", "Number": 10000}
{"Molecule": "Cc1sc(N(CCC2CCCCC2)Cc2ccc(OC(F)(F)F)cc2)nc1C(=O)NS(=O)(=O)C1CC1 [Compound 734]", "Experimental Readout": "EC50", "Measurement Qualifier": ">", "Number": 10000}
{"Molecule": "Cc1ccccc1CN(c1ccc(C#N)cc1)c1nc(C(=O)NS(C)(=O)=O)c(C)s1 [Compound 45]", "Experimental Readout": "EC50", "Measurement Qualifier": "=", "Number": 501}
{"Molecule": "COCCCCS(=O)(=O)NC(=O)c1nc(N(Cc2ccc(OC(F)(F)F)cc2)c2ccc(C#N)cc2)sc1C [Compound 539]", "Experimental Readout": "EC50", "Measurement Qualifier": "=", "Number": 158}
{"Molecule": "CS(=O)(=O)NC(=O)c1nc(N(Cc2cccc(F)c2)c2ccc(C#N)cc2)sc1Br [Example 243]", "Experimental Readout": "EC50", "Measurement Qualifier": "=", "Number": 63.1}
{"Molecule": "Cc1sc(N(Cc2ccc(Cl)cc2Cl)c2ccc(C#N)cc2)nc1C(=O)NS(C)(=O)=O [Compound 413]", "Experimental Readout": "EC50", "Measurement Qualifier": "=", "Number": 501}

* * *

- Experimental System: androgen receptor (AR-LBD) (Rattus norvegicus, UniProt P15207)
- Construct: 5 μL of 2×AR-LBD/Fluoromone AL Red Complex contained in the kit; purchased Invitrogen
- Sequence (P15207 651-882 limits assumed): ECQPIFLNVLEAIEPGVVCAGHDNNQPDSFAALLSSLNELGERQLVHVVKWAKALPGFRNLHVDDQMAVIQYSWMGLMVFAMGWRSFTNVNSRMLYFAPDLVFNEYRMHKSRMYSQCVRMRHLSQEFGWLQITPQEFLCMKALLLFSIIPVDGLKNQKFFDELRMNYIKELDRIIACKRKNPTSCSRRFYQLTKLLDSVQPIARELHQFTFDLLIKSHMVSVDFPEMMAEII
- Assay Text: Evaluation of androgen receptor affinity (PolarScreen Androgen Receptor Competitor Assay Kit, Red; fluorescence polarization)
- Conditions Used: 22° C. for 5 hours, relative to binding rate of 1 μM DHT, read-out: AR affinity (pEC50) (converted)
Property: EC50; scope: individual compounds

{"Given Smiles": "Cc1sc(N(Cc2cc(F)cc(F)c2F)c2ccc(C#N)cc2)nc1C(=O)NS(C)(=O)=O", "EC50": "100 nM"}
{"Given Smiles": "CS(=O)(=O)NC(=O)c1nc(N(Cc2ccc(Cl)cc2)c2ccc(C#N)cc2)sc1Cl", "EC50": "25.1 nM"}
{"Given Smiles": "Cc1sc(N(Cc2ccccc2)CC(F)(F)c2ccc(Cl)cc2)nc1C(=O)NS(C)(=O)=O", "EC50": "126 nM"}
{"Given Smiles": "Cc1sc(N(CC(=O)N2CCCCC2)c2ccc(C#N)cc2)nc1C(=O)NS(C)(=O)=O", "EC50": "> 2000 nM"}
{"Given Smiles": "Cc1sc(N(Cc2cc3ccccc3s2)c2ccc(C#N)cc2)nc1C(=O)NS(C)(=O)=O", "EC50": "50.1 nM"}
{"Given Smiles": "Cc1sc(N(Cc2ccc(OCC(=O)N(C)C)cc2)c2ccc(C#N)cc2)nc1C(=O)NS(C)(=O)=O", "EC50": "1260 nM"}
{"Given Smiles": "Cc1sc(N(CCc2ccc3ccccc3c2)Cc2ccccc2)nc1C(=O)NS(C)(=O)=O", "EC50": "631 nM"}
{"Given Smiles": "Cc1sc(N(Cc2ccccc2)CC2(c3ccccc3)CC2)nc1C(=O)NS(C)(=O)=O", "EC50": "> 2000 nM"}
{"Given Smiles": "Cc1sc(N(Cc2ccc(OCCN3CCCC3=O)cc2)c2ccc(C#N)cc2)nc1C(=O)NS(C)(=O)=O", "EC50": "398 nM"}
{"Given Smiles": "Cc1sc(N(Cc2ccc(OC(F)(F)F)cc2)c2ccc(C#N)cc2)nc1C(=O)NS(=O)(=O)CS(C)(=O)=O", "EC50": "39.8 nM"}
{"Given Smiles": "Cc1sc(N(CC(=O)N(C)c2ccccc2)c2ccc(C#N)cc2)nc1C(=O)NS(C)(=O)=O", "EC50": "> 2000 nM"}
{"Given Smiles": "Cc1sc(N(Cc2ccccc2)c2ccccc2Cl)nc1C(=O)NS(C)(=O)=O", "EC50": "> 2000 nM"}
{"Given Smiles": "Cc1sc(N(CCc2ccc(C#N)cc2)Cc2ccc(Cl)cc2)nc1C(=O)NS(=O)(=O)C(F)(F)F", "EC50": "126 nM"}
{"Given Smiles": "CCS(=O)(=O)NC(=O)c1nc(N(CCc2ccc(Cl)cc2)Cc2ccc(Cl)cc2)sc1C", "EC50": "31.6 nM"}
{"Given Smiles": "Cc1sc(N(CCn2nccc2C)Cc2ccccc2)nc1C(=O)NS(C)(=O)=O", "EC50": "> 2000 nM"}
{"Given Smiles": "Cc1oc(N(CCc2ccc(Cl)cc2)Cc2ccccc2OC(F)F)nc1C(=O)NS(C)(=O)=O", "EC50": "50.1 nM"}
{"Given Smiles": "Cc1sc(N(Cc2ccccc2)c2ccc(C#N)cc2)nc1C(=O)NS(=O)(=O)c1cn(C)cn1", "EC50": "> 2000 nM"}

* * *

- Experimental System: human androgen receptor (Homo sapiens)
- Construct: expressed in transfected cells; host or cells: HEK293
- Assay Text: Reporter assay of an androgen receptor responsive sequence (luciferase, transiently transfected HEK293 cells)
- Assay type: cell-based
- Conditions Used: 24 hours incubation, relative to activity of 100 nM DHT, read-out: AR transcriptive activity (pEC50) (converted)
Property: EC50; scope: individual compounds

{"Given Smiles": "Cc1sc(N(Cc2ccc(OCc3ccncc3)cc2)c2ccc(C#N)cc2)nc1C(=O)NS(C)(=O)=O", "Experimental System": "human androgen receptor (Homo sapiens)", "EC50": "> 10000 nM"}
{"Given Smiles": "Cc1sc(N(Cc2ccc(Cl)cc2C#N)c2ccc(C#N)cc2)nc1C(=O)NS(C)(=O)=O", "Experimental System": "human androgen receptor (Homo sapiens)", "EC50": "> 10000 nM"}
{"Given Smiles": "Cc1sc(N(CCc2ccc3ccccc3c2)c2ccc(C#N)cc2)nc1C(=O)NS(C)(=O)=O", "Experimental System": "human androgen receptor (Homo sapiens)", "EC50": "> 10000 nM"}
{"Given Smiles": "CS(=O)(=O)NC(=O)c1nc(N(Cc2ccc(Cl)cc2)c2ccc(C#N)cc2)oc1C1CC1", "Experimental System": "human androgen receptor (Homo sapiens)", "EC50": "> 10000 nM"}
{"Given Smiles": "Cc1sc(N(CCc2cccnc2)Cc2ccc(Cl)cc2)nc1C(=O)NS(C)(=O)=O", "Experimental System": "human androgen receptor (Homo sapiens)", "EC50": "> 10000 nM"}
{"Given Smiles": "Cc1oc(N(CCc2ccc(Cl)cc2)Cc2ccc(C(F)(F)F)nc2)nc1C(=O)NS(C)(=O)=O", "Experimental System": "human androgen receptor (Homo sapiens)", "EC50": "501 nM"}
{"Given Smiles": "Cc1sc(N(Cc2ccc(OC(F)F)cc2)c2ccc(C#N)cc2)nc1C(=O)NS(C)(=O)=O", "Experimental System": "human androgen receptor (Homo sapiens)", "EC50": "31.6 nM"}
{"Given Smiles": "COCCCS(=O)(=O)NC(=O)c1nc(N(Cc2ncc(C(F)(F)F)cc2F)c2ccc(C#N)cc2)sc1C", "Experimental System": "human androgen receptor (Homo sapiens)", "EC50": "631 nM"}
{"Given Smiles": "Cc1sc(N(CCc2ccc(C#N)cc2)Cc2ccc(OC(F)(F)F)cc2)nc1C(=O)NS(=O)(=O)Cc1cccnc1", "Experimental System": "human androgen receptor (Homo sapiens)", "EC50": "100 nM"}
{"Given Smiles": "Cc1sc(N(Cc2ccc(OC(F)(F)F)cc2)c2ccc(C#N)cc2)nc1C(=O)NS(=O)(=O)Cc1cccnc1", "Experimental System": "human androgen receptor (Homo sapiens)", "EC50": "50.1 nM"}
{"Given Smiles": "Cc1sc(N(Cc2ccc(Cl)cc2)c2ccc(C#N)cc2)nc1C(=O)NS(C)(=O)=O", "Experimental System": "human androgen receptor (Homo sapiens)", "EC50": "25.1 nM"}
{"Given Smiles": "Cc1sc(N(CCc2cccc(Cl)c2)Cc2ccccc2)nc1C(=O)NS(C)(=O)=O", "Experimental System": "human androgen receptor (Homo sapiens)", "EC50": "1580 nM"}
{"Given Smiles": "COCCCS(=O)(=O)NC(=O)c1nc(N(Cc2ccc3ncsc3c2)c2ccc(C#N)cc2)sc1C", "Experimental System": "human androgen receptor (Homo sapiens)", "EC50": "126 nM"}
{"Given Smiles": "Cc1sc(N(Cc2ccc(Br)cc2Cl)c2ccc(C#N)cc2)nc1C(=O)NS(C)(=O)=O", "Experimental System": "human androgen receptor (Homo sapiens)", "EC50": "501 nM"}
{"Given Smiles": "Cc1sc(N(Cc2ccc(C3CC3)cc2)c2ccc(C#N)cc2)nc1C(=O)NS(C)(=O)=O", "Experimental System": "human androgen receptor (Homo sapiens)", "EC50": "200 nM"}
{"Given Smiles": "Cc1sc(N(Cc2ccc(OCC(F)(F)F)cc2)c2ccc(C#N)cc2)nc1C(=O)NS(C)(=O)=O", "Experimental System": "human androgen receptor (Homo sapiens)", "EC50": "631 nM"}
